# Settings: pH 2.7
Marks after values point to notes of the source that are not given here.
Measured Log P by item
Parameter: Log P

compound="CC#CC(C)NC(=C(C#N)C(=O)OCC)c1ccnc(Cl)c1Cl (racemic) [Compound 1386]" test_result=3.44^[a]
compound="CCOC(=O)C(C#N)=C(NCc1nc2ccccc2s1)c1sccc1C(F)(F)F [Compound 176]" test_result=3.67^[a]
compound="CCOC(=O)C(C#N)=C(NC(C)c1ccccn1)c1ccnc(-c2ccccc2)c1Cl (racemic) [Compound 1398]" test_result=3.33^[a]
compound="COC(=O)C(C#N)=C(NC(C)CCc1ccccc1)c1cccnc1Cl (stereo not shown) [Compound 424]" test_result=3.27^[a]

----------
# Settings: pH 2.7
Marks after values point to notes of the source that are not given here.
Parameter: Log P

molecule=CCOC(=O)C(C#N)=C(NCc1nccs1)c1cn(C)nc1C(F)(F)F test_result=2.43^[a]
molecule="COC(=O)C(C#N)=C(NC(C)c1ccccn1)c1cccnc1Cl (stereo not drawn)" test_result=1.99^[a]
molecule="CC(C)C(C)NC(=C(C#N)C(=O)N1CCOCC1)c1cccnc1Cl (stereo not drawn)" test_result=2.58^[a]
molecule="CCOC(=O)C(C#N)=C(NC(C(=O)OC)C(C)C)c1cc(Cl)sc1Cl (stereo not drawn)" test_result=4.14^[a]
molecule=COC(=O)C(C#N)=C(NC(C)(C)C#Cc1ccc(C#N)cc1)c1sc(C)nc1C(F)(F)F test_result=3.78^[a]
molecule="CCOC(=O)C(C#N)=C(NC(C)c1nccs1)c1nc(SC)ncc1Br (racemic)" test_result=3.21^[a]
molecule=CCOC(=O)C(C#N)=C(NCc1ccccn1)c1sc(C)nc1C(F)(F)F test_result=2.7^[a]
molecule=CCOC(=O)C(C#N)=C(Nc1ccccc1SC)c1sc(Cl)nc1Cl test_result=4.14^[a]
molecule=COC(=O)C(C#N)=C(Nc1ccc(SC)cc1)c1sc(C)nc1C(F)(F)F test_result=3.53^[a]
molecule="C#CCNC(=O)C(C#N)=C(NC(C)c1ccccn1)c1cn(C)nc1C(F)F (racemic)" test_result=1.89^[a]
molecule="C#CC1CCCCC1NC(=C(C#N)C(=O)OC)c1cccnc1Cl (stereo not drawn)" test_result=2.99^[a]
molecule="CCOC(=O)C(C#N)=C(NC(C)c1nccs1)c1ccnc(-c2ccccc2)c1Cl (stereo not drawn)" test_result=3.31^[a]
molecule=CCOC(=O)C(C#N)=C(Nc1ccc(OC)cc1)c1sccc1Br test_result=3.55^[a]
molecule=CCOC(=O)C(C#N)=C(NC1(C)CCC1)c1cccnc1Cl test_result=3.11^[a]
molecule="CCOC(=O)C(C#N)=C(NC(C)C(C)C)c1ccnc(Br)c1F (stereo not drawn)" test_result=3.87^[a]
molecule="CCOC(=O)C(C#N)=C(NC(C)C(C)C)c1c(C(F)(F)F)nn(C)c1Cl (racemic)" test_result=4.06^[a]
molecule="COCCNC(=O)C(C#N)=C(NC(C)C(C)C)c1cn(C)nc1C(F)F (stereo not drawn)" test_result=2.59^[a]
molecule=CCOC(=O)C(C#N)=C(NC(C)(C)CC)c1cccnc1Cl test_result=3.23^[a]

----------
# Settings: pH 2.7
Marks after values point to notes of the source that are not given here.
Measured Log P by item
Parameter: Log P

compound="CCOC(=O)C(C#N)=C(NC(C)CC(C)C)c1cn(C)nc1C(F)F (racemic)" test_result=3.46^[a]
compound="CCOC(=O)C(C#N)=C(NC(C)C1CC1)c1cnn(C)c1Cl (centres unmarked)" test_result=2.98^[a]
compound=CCOC(=O)C(C#N)=C(NC(C)(C)C(C)(C)C)c1cccnc1Cl test_result=3.8^[a]
compound="CCOC(=O)C(C#N)=C(NC(C)c1ccccn1)c1cn(C)nc1CC (centres unmarked)" test_result=2.25^[a]
compound="CCOC(=O)C(C#N)=C(NC(C#N)CC(C)C)c1cn(C)nc1C(F)F (racemic)" test_result=3.04^[a]
compound=CCOC(=O)C(C#N)=C(Nc1ccccc1SC)c1cc(C)oc1C test_result=3.84^[a]
compound="CCOC(=O)C(C#N)=C(NC1CC1C)c1cn(C)nc1C(F)F (centres unmarked)" test_result=2.68^[a]
compound=CCOC(=O)C(C#N)=C(NC(CC)CC)c1cn(C)nc1C(F)F test_result=3.15^[a]
compound="CCOC(=O)C(C#N)=C(NC(C)c1nccs1)c1cn(C)nc1C(C)C (centres unmarked)" test_result=2.62^[a]
compound="CCOC(=O)C(C#N)=C(NC(C)c1ncc(C)s1)c1sccc1Br (racemic)" test_result=3.46^[a]
compound="CCOC(=O)C(C#N)=C(NC(C)C(C)C)c1cn(C)nc1OC (centres unmarked)" test_result=3.06^[a]
compound="CCOC(=O)C(C#N)=C(NC1CCCC1OC)c1cn(C)nc1C(F)F (centres unmarked)" test_result=2.78^[a]
compound=CCOC(=O)C(C#N)=C(NCc1nccs1)c1ncc(C(F)(F)F)cc1Cl test_result=2.84^[a]
compound=CCOC(=O)C(C#N)=C(Nc1ccc(N(C)C)cc1)c1sccc1Br test_result=3.76^[a]
compound="CCOC(=O)C(C#N)=C(NC(C)C(C)C)c1ccsc1Br (centres unmarked)" test_result=4.1^[a]
compound="CCOC(=O)C(C#N)=C(NC(C)C1CC1)c1ccnc(Cl)c1Cl (racemic)" test_result=3.61^[a]
compound="CCOC(=O)C(C#N)=C(NC(C)c1ccccc1Br)c1cccnc1Cl (centres unmarked)" test_result=3.89^[a]
compound="CCNC(=O)C(C#N)=C(NC(C)c1nccs1)c1ccnc(C)c1Cl (centres unmarked)" test_result=2.18^[a]
compound=CCOC(=O)C(C#N)=C(Nc1cccc2nsnc12)c1cccnc1Cl test_result=3.17^[a]
compound=CCOC(=O)C(C#N)=C(NC1CCC1)c1cc(Cl)sc1Cl test_result=4.26^[a]
compound=CCOC(=O)C(C#N)=C(Nc1ccccc1SC)c1c(C)nn(C)c1F test_result=3.21^[a]
compound="CC(C)C(C)NC(=C(C#N)C(=O)NC1CCC1C)c1cccnc1Cl (centres unmarked)" test_result=4.01^[a]
compound="CCCCCC(C)NC(=C(C#N)C(=O)OCC)c1cccnc1Cl (centres unmarked)" test_result=4.26^[a]
compound="CCOC(=O)C(C#N)=C(NC(C)CC(F)(F)F)c1cn(C)nc1C(F)F (centres unmarked)" test_result=2.77^[a]
compound=CCOC(=O)C(C#N)=C(Nc1cc(C(F)(F)F)ccc1SC)c1cn(C)nc1C(F)F test_result=3.67^[a]
compound="CCOC(=O)C(C#N)=C(NC(C)C(C)C)c1ccnc(Cl)c1F (centres unmarked)" test_result=3.81^[a]
compound=CCOC(=O)C(C#N)=C(Nc1ccccc1SC)c1sc(C)nc1C(F)(F)F test_result=3.8^[a]
compound="CCCCCCC(C)NC(=C(C#N)C(=O)OCC)c1sccc1Br (racemic)" test_result=5.48^[a]
compound="CCOC(=O)C(C#N)=C(NC(C)c1ccccc1)c1sccc1C(F)(F)F (mixture of isomers)" test_result=4.16^[a]
compound="CCOC(=O)C(C#N)=C(NCC(C)c1ccccc1Br)c1cccnc1Cl (centres unmarked)" test_result=3.94^[a]
compound="CCOC(=O)C(C#N)=C(NC(C)c1nc(C)sc1C)c1cccnc1Cl (racemic)" test_result=2.84^[a]
compound="CCOC(=O)C(C#N)=C(NC(C)CCCC(C)C)c1cccnc1Cl (centres unmarked)" test_result=4.62^[a]
compound="CCOC(=O)C(C#N)=C(NC(C)C(=O)OCC)c1sccc1C(F)(F)F (racemic)" test_result=3.44^[a]
compound="CCNC(=O)C(C#N)=C(NC(C)c1ccccn1)c1cccnc1Cl (centres unmarked)" test_result=1.93^[a]
compound="CCOC(=O)C(C#N)=C(NC1CC1CC)c1cccnc1Cl (centres unmarked) [Compound 1062]" test_result=3.27^[a]

----------
# Settings: pH 2.7
Marks after values point to notes of the source that are not given here.
Parameter: Log P

compound="C#CCC(C#N)NC(=C(C#N)C(=O)OCC)c1cn(C)nc1C(F)F (centres unmarked)" parameter="Log P" test_result=2.33^[a]
compound="CCOC(=O)C(C#N)=C(NC(C)COC)c1sccc1Br (racemic) [Compound 671]" parameter="Log P" test_result=3.17^[a]
compound="CCOC(=O)C(C#N)=C(NC(C)c1nccs1)c1c(C(F)F)nn(C)c1Cl (racemic)" parameter="Log P" test_result=2.77^[a]
compound="CCOC(=O)C(C#N)=C(NC(C)c1nccs1)c1cccnc1C(F)F (racemic)" parameter="Log P" test_result=2.39^[a]
compound="CCOC(=O)C(C#N)=C(NC(c1cncnc1C(F)(F)F)C(C)C)c1cccnc1Cl (racemic)" parameter="Log P" test_result=3.55^[a]
compound="COC(=O)C(C#N)=C(NC(c1cc2ccccc2s1)C(F)(F)F)c1cn(C)nc1C(F)F (racemic)" parameter="Log P" test_result=3.83^[a]
compound="CCOC(=O)C(C#N)=C(NC1CC2CCC1C2)c1cccnc1Cl (centres unmarked) [Compound 1081]" parameter="Log P" test_result=3.7^[a]
compound="CCOC(=O)C(C#N)=C(NC(C)c1nccs1)c1cnn(C)c1C(F)F (centres unmarked)" parameter="Log P" test_result=2.46^[a]
compound=C#CCNC(=C(C#N)C(=O)OCC)c1cn(C)nc1C(F)F parameter="Log P" test_result=2.13^[a]
compound="CCOC(=O)C(C#N)=C(NC(C)C1(Cl)CC1)c1cccnc1Cl (centres unmarked)" parameter="Log P" test_result=3.33^[a]
compound="CCOC(=O)C(C#N)=C(NC(c1cc2ccccc2s1)C(F)(F)F)c1conc1C (centres unmarked)" parameter="Log P" test_result=4.24^[a]
compound="CCOC(=O)C(C#N)=C(NC(C)c1nc(C)c(C)s1)c1c(C(F)F)nn(C)c1Cl (racemic)" parameter="Log P" test_result=3.37^[a]
compound="CCOC(=O)C(C#N)=C(NC(C)CF)c1cc(C)oc1C (centres unmarked)" parameter="Log P" test_result=2.8^[a]
compound="CCOC(=O)C(C#N)=C(NC1CC1C(F)(F)F)c1cccnc1Cl (centres unmarked)" parameter="Log P" test_result=2.9^[a]
compound="COC(=O)C(C#N)=C(NC(C)CC(F)(F)F)c1cccnc1Cl (centres unmarked)" parameter="Log P" test_result=2.34^[a]
compound="CCOC(=O)C(C#N)=C(NC(C)C(=O)NC)c1sccc1Br (centres unmarked)" parameter="Log P" test_result=2.07^[a]
compound="CCOC(=O)C(C#N)=C(NC(C)C(=O)OCC)c1sccc1Br (racemic)" parameter="Log P" test_result=3.33^[a]
